Tested on: D-3-phosphoglycerate dehydrogenase (Homo sapiens) (UniProt O43175)
Sequence (O43175 whole entry): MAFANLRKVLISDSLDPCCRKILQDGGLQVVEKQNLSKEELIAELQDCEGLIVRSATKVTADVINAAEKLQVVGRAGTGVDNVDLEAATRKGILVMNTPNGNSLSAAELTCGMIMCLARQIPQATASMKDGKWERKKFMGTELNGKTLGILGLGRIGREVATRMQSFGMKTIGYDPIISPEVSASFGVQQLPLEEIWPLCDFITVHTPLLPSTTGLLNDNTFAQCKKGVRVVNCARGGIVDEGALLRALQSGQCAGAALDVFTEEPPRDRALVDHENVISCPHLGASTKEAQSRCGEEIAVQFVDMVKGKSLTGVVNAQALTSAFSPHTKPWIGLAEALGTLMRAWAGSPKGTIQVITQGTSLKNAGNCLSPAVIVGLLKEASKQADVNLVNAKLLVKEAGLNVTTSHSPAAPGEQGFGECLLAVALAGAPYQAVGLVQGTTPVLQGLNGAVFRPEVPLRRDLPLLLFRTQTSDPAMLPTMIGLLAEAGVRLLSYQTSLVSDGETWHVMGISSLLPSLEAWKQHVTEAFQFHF
Assay: Ratio of IC50 for inhibition of PHGDH in human SiHa cells assessed as reduction in cell viability in serine repleted medium to IC50 for inhibition of PHGDH in human SiHa cells assessed as reduction in cell viability in serine depleted medium
Format: cell-based
For each record, write down the corresponding Ratio IC50.
Answers are plain numbers.

Solved entries:
{"columns": ["Record smiles", "Tested on", "Ratio IC50"],
 "data": [
  ["O=C(C(=S)N1CCOCC1)c1ccc(Cl)cc1", "D-3-phosphoglycerate dehydrogenase (Homo sapiens) (UniProt O43175)", 3.2],
  ["O=C(C(=S)N1CCOCC1)c1ccc(I)cc1", "D-3-phosphoglycerate dehydrogenase (Homo sapiens) (UniProt O43175)", 2.8]
]}

Provide Ratio IC50 for all items below, preserving their order.
1. O=C(C(=S)N1CCOCC1)c1ccc(Br)cc1
2. O=C(C(=S)N1CCOCC1)c1ccc([N+](=O)[O-])cc1
3. O=C(C(=S)N1CCOCC1)c1ccccc1

1: 2.6; 2: 3; 3: 9.1

----------
Tested on: D-3-phosphoglycerate dehydrogenase (Homo sapiens)
Assay: Inhibition of recombinant human C-terminal His-tagged PHGDH (1 to 533 residues) expressed in Escherichia coli assessed as reduction in NADH formation using 3-phosphoglycerate as substrate in presence of NAD+ by resorufin fluorescence based PSAT1/diaphorase/PSPH coupled enzyme assay
I'd appreciate it if you could supply pIC50 values for the items below.
Answers are plain numbers, as −log10 of the molar value.

These recorded examples may help you get a feel for the data.
{"columns": ["Record smiles", "pIC50"],
 "data": [
  ["O=C(Nc1ccccc1[N+](=O)[O-])c1ccc(Cl)cc1", 4.12],
  ["O=C(C(=S)N1CCOCC1)c1ccc(Cl)cc1", 5.06]
]}

Shifting focus to the compound that follows.
According to the records, this compound O=C(C(=S)N1CCOCC1)c1ccccc1Br displays pIC50 of 3.79

----------
Tested on: D-3-phosphoglycerate dehydrogenase (Homo sapiens)
Assay: Non-competitive inhibition of recombinant human C-terminal His-tagged PHGDH (1 to 533 residues) expressed in Escherichia coli assessed as reduction in NADH formation preincubated for 30 mins followed by constant concentration of 3-phosphoglycerate substrate addition in presence of varying levels of NAD+ by resorufin fluorescence based PSAT1/diaphorase/PSPH coupled enzyme assay
Attribute measured: pKi
Answers are plain numbers, as −log10 of the molar value.

Item: O=C(C(=S)N1CCOCC1)c1ccccc1 | pKi: 4.57

----------
Tested on: D-3-phosphoglycerate dehydrogenase (Homo sapiens, UniProt O43175)
Sequence (O43175 whole entry, the tested form may be a part): as the sequence (O43175 whole entry) above
Assay: Inhibition of recombinant human C-terminal His-tagged PHGDH (1 to 533 residues) expressed in Escherichia coli assessed as reduction in NADH formation using 3-phosphoglycerate as substrate in presence of NAD+ by resorufin fluorescence based PSAT1/diaphorase/PSPH coupled enzyme assay
Assign IC50 to each entry below.
Answers are plain numbers, in µM.

Recorded results for 5 molecules are shown here.
{"columns": ["Record smiles", "IC50, µM"],
 "data": [
  ["O=C(C(=S)N1CCOCC1)c1cccc([N+](=O)[O-])c1", 88.1],
  ["O=C(C(=S)N1CCOCC1)c1ccc(Br)cc1", 131],
  ["O=C(C(=S)N1CCOCC1)c1ccc(I)cc1", 178],
  ["O=C(C(=S)N1CCOCC1)c1ccc([N+](=O)[O-])cc1", 35.1],
  ["O=C(C(=S)N1CCOCC1)c1ccccc1", 30.9]
]}

In plain terms, O=C(C(=S)N1CCOCC1)c1ccc(F)cc1 has a documented IC50 of 68.9

----------
Tested on: D-3-phosphoglycerate dehydrogenase (Homo sapiens)
Assay: Inhibition of recombinant human C-terminal His-tagged PHGDH (1 to 533 residues) expressed in Escherichia coli assessed as reduction in NADH formation at 100 uM using 3-phosphoglycerate as substrate preincubated measured for 7 mins in presence of NAD+ by spectrophotometric method relative to control
Y means recorded inhibition is 40% or above; N means it is below 40%.

{"columns": ["Record smiles", "Group"],
 "data": [
  ["O=C(N1CCN(c2ccccc2)CC1)n1nnc2ccccc21", "N"],
  ["CCCCCN1C(=O)NC(c2ccccc2)(c2ccccc2)C1=O", "N"],
  ["FC(F)(F)c1cc(NC(=S)N2CCN(Cc3ccccc3)CC2)cc(C(F)(F)F)c1", "Y"],
  ["S=C(c1ccc(Cl)c(Cl)c1)N1CCOCC1", "Y"],
  ["COc1ccc(S(=O)(=O)N2CCNCC2)cc1", "N"],
  ["O=C1C=CC(=O)N1c1ccccc1Cl", "Y"],
  ["S=C(Nc1ccccc1)NC1CCCCC1", "N"]
]}

Next molecule, please.
Say whether S=C(NC1CCCCC1)Sc1ccccc1 shows inhibition of 40% or more.
Y

----------
Tested on: D-3-phosphoglycerate dehydrogenase (Homo sapiens)
Assay: Non-competitive inhibition of recombinant human C-terminal His-tagged PHGDH (1 to 533 residues) expressed in Escherichia coli assessed as reduction in NADH formation preincubated for 30 mins followed by varying levels of 3-phosphoglycerate substrate addition in presence of constant NAD+ concentration by resorufin fluorescence based PSAT1/diaphorase/PSPH coupled enzyme assay
Attribute measured: pKi
One number for each entry, as −log10 of the molar value.

# molecule O=C(C(=S)N1CCOCC1)c1ccccc1 ; its pKi = 4.40
